# Test target: Na^+ /H^+ exchanger of rabbit erythrocytes (Oryctolagus cuniculus, UniProt P23791)
# Construct: endogenous in cells
# Sequence (P23791 whole entry): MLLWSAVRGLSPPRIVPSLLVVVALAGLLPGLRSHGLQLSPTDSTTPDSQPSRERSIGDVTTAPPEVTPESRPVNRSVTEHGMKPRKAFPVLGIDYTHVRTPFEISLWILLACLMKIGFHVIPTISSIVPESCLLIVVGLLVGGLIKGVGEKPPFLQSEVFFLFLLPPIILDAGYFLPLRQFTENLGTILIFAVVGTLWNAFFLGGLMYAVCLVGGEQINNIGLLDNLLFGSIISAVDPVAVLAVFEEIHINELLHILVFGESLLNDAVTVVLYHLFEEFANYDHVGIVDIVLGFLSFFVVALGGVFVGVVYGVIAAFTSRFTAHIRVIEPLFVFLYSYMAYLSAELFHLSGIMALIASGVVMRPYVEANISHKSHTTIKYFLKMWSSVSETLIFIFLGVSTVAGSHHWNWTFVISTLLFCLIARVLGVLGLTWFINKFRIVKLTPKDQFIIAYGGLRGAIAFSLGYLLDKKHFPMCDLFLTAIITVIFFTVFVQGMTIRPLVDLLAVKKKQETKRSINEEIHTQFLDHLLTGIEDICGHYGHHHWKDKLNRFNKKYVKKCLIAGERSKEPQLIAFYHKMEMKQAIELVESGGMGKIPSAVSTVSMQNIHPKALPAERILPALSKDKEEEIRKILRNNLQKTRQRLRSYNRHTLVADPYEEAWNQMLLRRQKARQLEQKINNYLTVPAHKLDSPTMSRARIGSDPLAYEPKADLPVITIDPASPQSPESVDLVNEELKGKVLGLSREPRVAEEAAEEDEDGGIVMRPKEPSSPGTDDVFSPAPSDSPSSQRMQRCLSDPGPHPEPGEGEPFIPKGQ
# Assay summary: Inhibition of the Na^+ /H^+ exchanger of rabbit erythrocytes (amiloride-sensitive Na^+ influx, flame photometry)
# Test conditions: pH 7.4, 37° C.
pIC50: −log10 of the molar value. Counter-ions that a name gives are not always drawn.
Value type: pIC50

# example entries with known answers
>  <Compound>
CS(=O)(=O)c1cc(C(=O)N=C(N)N)cc(C2CCCC2)c1 [Example 13, hydrochloride]

>  <Quantitative result>
5.52

$$$$
>  <Compound>
CS(=O)(=O)c1cc(C(=O)N=C(N)N)ccc1C#Cc1ccccc1 [Example 7, hydrochloride]

>  <Quantitative result>
6.70

$$$$
>  <Compound>
CS(=O)(=O)c1cc(C(=O)N=C(N)N)ccc1C1CCCCC1 [Example 5, hydrochloride]

>  <Quantitative result>
5.77

$$$$
>  <Compound>
CS(=O)(=O)c1cc(C(=O)N=C(N)N)ccc1-c1ccc2ccccc2c1 [Example 2, hydrochloride]

>  <Quantitative result>
6.30

$$$$

[1] CS(=O)(=O)c1cc(C(=O)N=C(N)N)ccc1C1CCCC1 [Example 10, hydrochloride]
[2] CS(=O)(=O)c1cc(C(=O)N=C(N)N)ccc1CCc1ccccc1 [Example 9, hydrochloride]
Of the pair 1 and 2 , name the member with the lesser recorded pIC50. Answer format: the label of the selected item.
2
(2: 6.05, 1: 7.00)
